- Tested on: Strep. faec. 6
Measured MIC, listed per entry for reference.
measured property: MIC

compound: CCC1OC(=O)CC(O)C(C)C(OC2OC(C)C(O)C(N(C)C)C2O)C(CC=O)CC(C)C(=O)C=CC(C)=CC1COS(=O)(=O)c1ccc(C)cc1 (centres unmarked)
measured property: MIC
result: 0.39 µg/mL

compound: CCC1OC(=O)CC(O)C(C)C(OC2OC(C)C(O)C(N(C)C)C2O)C(CC=O)CC(C)C(=O)C=CC(C)=CC1CCl (centres unmarked)
measured property: MIC
result: 0.78 µg/mL

compound: CCC1OC(=O)CC(O)C(C)C(OC2OC(C)C(O)C(N(C)C)C2O)C(CC=O)CC(C)C(=O)C=CC(C)=CC1CO (centres unmarked) [(a), reference compound]
measured property: MIC
result: 0.78 µg/mL

compound: CCC1OC(=O)CC(O)C(C)C(OC2OC(C)C(O)C(N(C)C)C2O)C(CC=NN(C)C)CC(C)C(=O)C=CC(C)=CC1COS(=O)(=O)c1ccc(C)cc1 (centres unmarked)
measured property: MIC
result: 0.1 µg/mL

compound: CCC1OC(=O)CC(O)C(C)C(OC2OC(C)C(O)C(N(C)C)C2O)C(CC=NN(C)C)CC(C)C(=O)C=CC(C)=CC1CI (centres unmarked) [(e)]
measured property: MIC
result: 0.39 µg/mL

compound: CCC1OC(=O)CC(O)C(C)C(OC2OC(C)C(O)C(N(C)C)C2O)C(CC=O)CC(C)C(=O)C=CC(C)=CC1CN(C)C (centres unmarked)
measured property: MIC
result: 3.12 µg/mL

compound: CCC1OC(=O)CC(O)C(C)C(OC2OC(C)C(O)C(N(C)C)C2O)C(CC=O)CC(C)C(=O)C=CC(C)=CC1CI (centres unmarked)
measured property: MIC
result: 3.12 µg/mL

compound: CCC1OC(=O)CC(OC(C)=O)C(C)C(OC2OC(C)C(O)C(N(C)C)C2O)C(CC=O)CC(C)C(=O)C=CC(C)=CC1CN(C)C (centres unmarked)
measured property: MIC
result: 6.25 µg/mL

Values from patent US4454314A
